# key: entry, value: pKi
Assay: Inhibition of Trypanosoma cruzi glucokinase
pKi: −log10 of the molar value.

O=C(N[C@H]1C(O)O[C@H](CO)[C@H](O)[C@@H]1O)c1cc2ccccc2o1 (stereo not given in full) :: < 3.30

Ask | I would be grateful if you could share the reported pKi for O=C(N[C@@H]1C(O)O[C@H](CO)[C@@H](O)[C@@H]1O)c1ccccc1 (stereo not given in full) .
Reply | < 3.30

Ask | I would be grateful if you could share the reported pKi for Cc1ccc(C(=O)N[C@@H]2C(O)O[C@H](CO)[C@@H](O)[C@@H]2O)o1 (stereo not given in full) .
Reply | 3.32

Ask | I would be grateful if you could share the reported pKi for O=C(N[C@@H]1C(O)O[C@H](CO)[C@@H](O)[C@@H]1O)c1cccc(Br)c1 (stereo not given in full) .
Reply | 3.49

Ask | I would be grateful if you could share the reported pKi for O=C(N[C@@H]1C(O)O[C@H](CO)[C@@H](O)[C@@H]1O)c1ccc(CCl)cc1 (stereo not given in full) .
Reply | < 3.30

---

System: Saccharomyces cerevisiae
Test: Inhibition of Saccharomyces cerevisiae G6PDH at 20 uM relative to control
Measured Parameter: inhibition
Please report the result as a number followed by the unit.

Observe how each entry below is paired with its result.
O=C(N[C@H]1C(O)O[C@H](CO)[C@@H](O)[C@@H]1O)c1cc2ccccc2o1 (some centres undefined) :: 0%
Cc1ccc(C(=O)N[C@@H]2C(O)O[C@H](CO)[C@@H](O)[C@@H]2O)o1 (some centres undefined) :: 0%
O=C(N[C@H]1C(O)O[C@H](CO)[C@H](O)[C@@H]1O)c1cccc(Br)c1 (some centres undefined) :: 0%
O=C(N[C@H]1C(O)O[C@H](CO)[C@@H](O)[C@@H]1O)c1ccc(CCl)cc1 (some centres undefined) :: 0%
O=C(N[C@H]1C(O)O[C@H](CO)[C@H](O)[C@@H]1O)c1ccccc1 (some centres undefined) :: 0%

Ask | Tell me reported inhibition for O=C(N[C@@H]1C(O)O[C@H](CO)[C@@H](O)[C@@H]1O)c1cc2ccccc2o1 (some centres undefined) , tested with Saccharomyces cerevisiae.
Reply | 0%

Ask | Tell me reported inhibition for O=C(N[C@H]1C(O)O[C@H](CO)[C@@H](O)[C@@H]1O)c1ccoc1 (some centres undefined) , tested with Saccharomyces cerevisiae.
Reply | 0%

Ask | Tell me reported inhibition for O=C(N[C@@H]1C(O)O[C@H](CO)[C@@H](O)[C@@H]1O)c1ccc(CCl)cc1 (some centres undefined) , tested with Saccharomyces cerevisiae.
Reply | 0%

Ask | Tell me reported inhibition for O=C(N[C@H]1C(O)O[C@H](CO)[C@H](O)[C@@H]1O)c1ccoc1 (some centres undefined) , tested with Saccharomyces cerevisiae.
Reply | 0%

---

Assay: Competitive inhibition of Trypanosoma cruzi glucokinase using D-glucose as substrate in presence of ATP by Lineweaver-Burk plot analysis
Measured Parameter: Ki
Please report the result as a number followed by the unit.

O=C(N[C@H]1C(O)O[C@H](CO)[C@@H](O)[C@@H]1O)c1cc2ccccc2o1 (some centres not stated) :: 107 µM

Next, consider the following molecule.
Ask | I would be grateful if you could share the reported Ki for O=C(N[C@H]1C(O)O[C@H](CO)[C@@H](O)[C@@H]1O)c1ccoc1 (some centres not stated) .
Reply | 15.2 µM
